Source: ChEMBL document CHEMBL5291721

Assay system B2 bradykinin receptor (Homo sapiens, UniProt P30411); read-out recorded as AC50. Further: assay procedure not described here.

{"columns": ["COMPOUND", "TARGET SYSTEM", "AC50"],
 "data": [
  ["O=C1C(CC[S+]([O-])c2ccccc2)C(=O)N(c2ccccc2)N1c1ccccc1 (stereo unspecified)", "B2 bradykinin receptor (Homo sapiens, UniProt P30411)", "> 10 µM"],
  ["CN(C)CC[C@@H](c1ccc(Cl)cc1)c1ccccn1", "B2 bradykinin receptor (Homo sapiens, UniProt P30411)", "> 30 µM"],
  ["CC(=O)OCC(=O)[C@@]1(O)[C@H](C)C[C@H]2[C@@H]3CCC4=CC(=O)C=C[C@]4(C)[C@@]3(F)[C@@H](O)C[C@@]21C [DEXAMETHASONE ACETATE]", "B2 bradykinin receptor (Homo sapiens, UniProt P30411)", "> 30 µM"],
  ["C[C@H](Cc1ccc(O)c(O)c1)[C@@H](C)Cc1ccc(O)c(O)c1", "B2 bradykinin receptor (Homo sapiens, UniProt P30411)", "> 10 µM"],
  ["CC(=O)O[C@H](CC(=O)[O-])C[N+](C)(C)C", "B2 bradykinin receptor (Homo sapiens, UniProt P30411)", "> 30 µM"],
  ["C=C[C@@]1(C)CC(=O)[C@]2(O)[C@@]3(C)[C@@H](O)CCC(C)(C)[C@@H]3[C@H](O)[C@H](OC(C)=O)[C@@]2(C)O1", "B2 bradykinin receptor (Homo sapiens, UniProt P30411)", "> 30 µM"],
  ["COCC1=C(C(=O)O)N2C(=O)[C@@H](NC(=O)/C(=N\\OC)c3csc(N)n3)[C@H]2SC1", "B2 bradykinin receptor (Homo sapiens, UniProt P30411)", "> 30 µM"],
  ["CN1CCC(=C2c3ccccc3CCc3cccnc32)CC1", "B2 bradykinin receptor (Homo sapiens, UniProt P30411)", "> 30 µM"],
  ["N[C@@H](CC(=O)N1CCn2c(nnc2C(F)(F)F)C1)Cc1cc(F)c(F)cc1F", "B2 bradykinin receptor (Homo sapiens, UniProt P30411)", "> 10 µM"],
  ["CCC(COC(=O)c1cc(OC)c(OC)c(OC)c1)(c1ccccc1)N(C)C (stereo unspecified)", "B2 bradykinin receptor (Homo sapiens, UniProt P30411)", "> 30 µM"],
  ["OC[C@H]1O[C@@](CO)(O[C@H]2O[C@H](CO)[C@@H](O)[C@H](O)[C@H]2O)[C@@H](O)[C@@H]1O", "B2 bradykinin receptor (Homo sapiens, UniProt P30411)", "> 30 µM"],
  ["CCCCCCCCCCCCCCCCCCCCCC(=O)Nc1ccn([C@@H]2O[C@H](CO)[C@@H](O)[C@@H]2O)c(=O)n1", "B2 bradykinin receptor (Homo sapiens, UniProt P30411)", "> 30 µM"],
  ["CCN(CC)CCNC(=O)c1cc(S(C)(=O)=O)ccc1OC [TIAPRIDE]", "B2 bradykinin receptor (Homo sapiens, UniProt P30411)", "> 30 µM"],
  ["Cc1ncc2n1-c1ccc(Cl)cc1C(c1ccccc1F)=NC2", "B2 bradykinin receptor (Homo sapiens, UniProt P30411)", "> 30 µM"],
  ["C=CCNc1nc(NCC=C)nc(N2CCN(C(c3ccc(F)cc3)c3ccc(F)cc3)CC2)n1", "B2 bradykinin receptor (Homo sapiens, UniProt P30411)", "> 30 µM"],
  ["CNC1=Nc2ccc(Cl)cc2C(c2ccccc2)=[N+]([O-])C1 [CHLORDIAZEPOXIDE]", "B2 bradykinin receptor (Homo sapiens, UniProt P30411)", "> 30 µM"]
]}
